These data points were gathered from patent EP0633316A1.

Molecular target: PepN (Lactobacillus delbrueckii subsp. lactis, UniProt P37896)
Construct: made in house; host or cells: E. coli CM89 (pepN-deficient) harbouring plasmid pUK13
Sequence (P37896 whole entry): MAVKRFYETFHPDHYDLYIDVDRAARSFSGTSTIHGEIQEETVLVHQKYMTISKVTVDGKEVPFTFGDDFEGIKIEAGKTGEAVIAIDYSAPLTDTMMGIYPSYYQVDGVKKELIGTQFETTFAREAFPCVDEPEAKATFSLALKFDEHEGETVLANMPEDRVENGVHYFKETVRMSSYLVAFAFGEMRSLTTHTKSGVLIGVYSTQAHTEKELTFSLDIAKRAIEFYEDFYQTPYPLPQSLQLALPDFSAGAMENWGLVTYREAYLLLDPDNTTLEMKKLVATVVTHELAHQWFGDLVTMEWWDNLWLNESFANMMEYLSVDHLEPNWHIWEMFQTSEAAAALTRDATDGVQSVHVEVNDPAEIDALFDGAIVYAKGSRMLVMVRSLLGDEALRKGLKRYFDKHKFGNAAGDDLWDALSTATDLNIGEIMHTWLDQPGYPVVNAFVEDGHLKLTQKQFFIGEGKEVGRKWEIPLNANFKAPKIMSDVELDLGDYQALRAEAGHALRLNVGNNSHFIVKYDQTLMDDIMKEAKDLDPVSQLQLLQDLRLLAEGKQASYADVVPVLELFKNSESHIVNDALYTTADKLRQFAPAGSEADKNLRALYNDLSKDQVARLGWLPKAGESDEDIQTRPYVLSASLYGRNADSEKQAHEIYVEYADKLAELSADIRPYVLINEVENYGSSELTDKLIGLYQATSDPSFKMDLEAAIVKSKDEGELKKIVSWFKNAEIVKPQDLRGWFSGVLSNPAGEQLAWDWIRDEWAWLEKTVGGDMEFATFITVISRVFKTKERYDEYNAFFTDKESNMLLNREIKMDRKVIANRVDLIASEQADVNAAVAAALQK
Test: Substrate specificity of purified PepN against p-nitroanilide substrates
Format: biochemical, Lactobacillus delbrückii ssp. lactis
Settings: p-nitroanilide substrates 1 mM, 10 min at 37°C, Tris-HCl 10 mM pH 8.0
Residues, ends and D or L forms follow the SMILES beside them. *: point of attachment. pNA = O=[N+]([O-])c1ccc(N*)cc1

molecule	systemUnderTest	relative activity (%)
NCCCC[C@H](N)C(=O)Nc1ccc([N+](=O)[O-])cc1 [Lys-pNA, lys-p-nitroanilide]	PepN (Lactobacillus delbrueckii subsp. lactis, UniProt P37896)	100
N[C@@H](Cc1ccccc1)C(=O)Nc1ccc([N+](=O)[O-])cc1 [Phe-pNA]	PepN (Lactobacillus delbrueckii subsp. lactis, UniProt P37896)	8
C[C@H](N)C(=O)N1CCC[C@H]1C(=O)Nc1ccc([N+](=O)[O-])cc1 [Ala-Pro-pNA] (H-Ala-Pro-pNA)	PepN (Lactobacillus delbrueckii subsp. lactis, UniProt P37896)	0
NCC(=O)Nc1ccc([N+](=O)[O-])cc1 [Gly-pNA]	PepN (Lactobacillus delbrueckii subsp. lactis, UniProt P37896)	1
N[C@@H](Cc1ccc(O)cc1)C(=O)Nc1ccc([N+](=O)[O-])cc1 [Tyr-pNA]	PepN (Lactobacillus delbrueckii subsp. lactis, UniProt P37896)	2
C[C@H](N)C(=O)Nc1ccc([N+](=O)[O-])cc1 [Ala-pNA]	PepN (Lactobacillus delbrueckii subsp. lactis, UniProt P37896)	12
CC(C)C[C@H](N)C(=O)Nc1ccc([N+](=O)[O-])cc1 [Leu-pNA]	PepN (Lactobacillus delbrueckii subsp. lactis, UniProt P37896)	19
O=C(Nc1ccc([N+](=O)[O-])cc1)[C@@H]1CCCN1 [Pro-pNA]	PepN (Lactobacillus delbrueckii subsp. lactis, UniProt P37896)	2
